Tested on: spontaneously hypertensive rats
Experiment: Antihypertensive activity in spontaneously hypertensive rats, oral administration
Type: in vivo
Conditions: 30 mg/kg
attribute.measured: duration of the effect, Systolic pressure

Problem: Short answer please: duration of the effect, Systolic pressure, spontaneously hypertensive rats, entry COC(=O)C1=C(C)NC(C)=C(C(=O)OCC2COC(c3ccccc3)(c3ccccc3)O2)C1c1cccc([N+](=O)[O-])c1 (racemic)
Result: > 24 h

Problem: Short answer please: duration of the effect, Systolic pressure, spontaneously hypertensive rats, entry COC(=O)C1=C(C)NC(C)=C(C(=O)OCC2COC(C)(c3ccc(Cl)cc3Cl)O2)C1c1cccc([N+](=O)[O-])c1 (racemic)
Result: > 24 h

Problem: Short answer please: duration of the effect, Systolic pressure, spontaneously hypertensive rats, entry COC(=O)C1=C(C)NC(C)=C(C(=O)OCC2COC(C)(c3ccccc3)O2)C1c1cccc([N+](=O)[O-])c1 (racemic)
Result: > 24 h

Problem: Short answer please: duration of the effect, Systolic pressure, spontaneously hypertensive rats, entry COC(=O)C1=C(C)NC(C)=C(C(=O)OCC2COC3(CCCCC3)O2)C1c1cccc([N+](=O)[O-])c1 (stereo not shown)
Result: > 24 h

Problem: Short answer please: duration of the effect, Systolic pressure, spontaneously hypertensive rats, entry COC(=O)C1=C(C)NC(C)=C(C(=O)OCC2COC(c3ccccc3)O2)C1c1cccc([N+](=O)[O-])c1 (stereo not shown)
Result: > 24 h

Problem: Short answer please: duration of the effect, Systolic pressure, spontaneously hypertensive rats, entry COC(=O)C1=C(C)NC(C)=C(C(=O)OCC2(C)OCCO2)C1c1cccc([N+](=O)[O-])c1 (stereo not shown) [CP 1, reference compound]
Result: 0 h

Problem: Short answer please: duration of the effect, Systolic pressure, spontaneously hypertensive rats, entry COC(=O)C1=C(C)NC(C)=C(C(=O)OCC2COC(C(F)(F)F)(C(F)(F)F)O2)C1c1cccc([N+](=O)[O-])c1 (stereo not shown)
Result: > 24 h

Source: patent US4710505A
